FYI, the data here is from patent US20250034196A1.

Assay: in vivo
Design: species or system Beagle Dogs
Conditions: female, beagle, dog, po, 22 mg/kg, Tmax of CH2107 (Molnupiravir)
result-type: Tmax (min)
Numbers only, in min.

Query (molecule): CC(C)C(=O)OC[C@H]1O[C@@H](n2ccc(NO)nc2=O)[C@H](O)[C@@H]1O [Molnupiravir] ; field requested: Tmax
30
